target: IDH1/R132H (Homo sapiens, UniProt O75874, R132H); construct: expressed in transfected cells; host or cells: U87MG glioma cells; assay: Inhibitory activity against mutant IDH1/R132H at the cellular level (extracellular 2-HG, U87MG cells); type: cell-based
Sequence (O75874 whole entry R132H): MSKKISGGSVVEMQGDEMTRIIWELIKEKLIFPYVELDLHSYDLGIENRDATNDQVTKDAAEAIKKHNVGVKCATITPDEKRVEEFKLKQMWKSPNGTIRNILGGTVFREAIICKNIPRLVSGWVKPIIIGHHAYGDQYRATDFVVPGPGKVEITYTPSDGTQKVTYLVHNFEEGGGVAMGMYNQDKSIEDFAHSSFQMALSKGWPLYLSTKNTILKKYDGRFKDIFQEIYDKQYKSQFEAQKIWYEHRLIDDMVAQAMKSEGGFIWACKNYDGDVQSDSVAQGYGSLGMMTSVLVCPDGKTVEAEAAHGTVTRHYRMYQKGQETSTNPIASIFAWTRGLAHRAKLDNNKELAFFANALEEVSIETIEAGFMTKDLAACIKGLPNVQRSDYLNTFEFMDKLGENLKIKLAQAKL
pIC50: −log10 of the molar value.
QUANTITY_MEASURED: pIC50

query: For the compound CC(C)[C@H]1COC(=O)N1c1ccnc(N[C@@H](C)c2ccccn2)n1 [Ref1, reference compound] , what pIC50 is on record?
result: 5.00 to 6.30

* * *

target: IDH1/R132H (Homo sapiens, UniProt O75874, R132H); construct: expressed in transfected cells; host or cells: U87MG glioma cells; test: Inhibitory activity against mutant IDH1/R132H at the cellular level (extracellular 2-HG, U87MG cells); format: cell-based; conditions: glioma cell U87MG overexpressing IDH1/R132H, 24 hours, 2-HG in culture medium; read-out: IC50 (nM), inhibitory activity against IDH1/R132H
Overview of recorded IC50 for various molecules

MOLECULE	IC50
CC(C)[C@H]1COC(=O)N1c1ccnc(N[C@@H](C)c2ccc(OCCOCCOCCOc3ccc([C@H](C)Nc4nccc(N5C(=O)OC[C@@H]5C(C)C)n4)nc3)cn2)n1	< 5 nM

Then this molecule:
query: Any idea what IC50 was measured for CC(C)[C@H]1COC(=O)N1c1ccnc(N[C@@H](C)c2ccc(OCCOCCOCCOCCOc3ccc([C@H](C)Nc4nccc(N5C(=O)OC[C@@H]5C(C)C)n4)nc3)cn2)n1 ?
result: < 5 nM
